Source: patent US20100247589A1

molecular target: tooth pellicle (thin film derived from salivary glycoproteins, formed in a human mouth) (human); test: phage ELISA on pellicle-coated bovine enamel, anti-M13-HRP, normalized to internal control
Listed here are binders together with their documented O.D.450 (normalized).

DTIHPNKMKSPSSPL [DenP26] = 1.04

[Q] Item YLLPKDQTTAPQVTPIVQHK [DenP5] : provide O.D.450 (normalized)
[A] 1.09

[Q] Item HKNENIMQYNVNDRWHITPA [DenP32] : provide O.D.450 (normalized)
[A] 1.44

[Q] Item GMPTRYYHNTPPHLTPKF [DenP8] : provide O.D.450 (normalized)
[A] 1.18

[Q] Item HDPNHLTHQARTIYRNANHT [DenP23] : provide O.D.450 (normalized)
[A] 1.24
